tested on: COLO 205 colon; assay: NCI tumour cell line growth inhibition, 48 h
Reported TGI values follow for various molecules

// worked examples, TGI included
O=C1C2CCCCC2C(=O)N1n1c(Cc2ccc(Cl)cc2)n[nH]c1=O (stereo unspecified)
> 100 µM
O=C1c2ccccc2C2CNC1(O)c1ccccc12 (stereo unspecified)
> 100 µM
COc1cc(C(=O)OCCCCCCCCCCC[P+](c2ccccc2)(c2ccccc2)c2ccccc2)ccc1O
3.06 µM

Lookup: Look up TGI: OCCOc1ccc(-c2cc(-c3ccccn3)nc(-c3ccccn3)c2)cc1
Found: 6.29 µM

Lookup: Look up TGI: CC1=C([Se]CC(OC(=O)[C@@H](CSSC(C)(C)C)NC(=O)OC(C)(C)C)C(=O)NC(C)(C)C)C(=O)c2ccccc2C1=O (stereo partly specified)
Found: 3.15 µM

Lookup: Look up TGI: Cc1nc2ccc(CN(C)c3ccc(C(=O)N[C@@H](CCC(=O)O)C(=O)O)s3)cc2c(=O)[nH]1
Found: > 100 µM

Lookup: Look up TGI: O=c1cc(CNC2CCCC2)[nH]c(=O)[nH]1
Found: > 100 µM

Lookup: Look up TGI: CCCN(CCC)CCCNCc1cc(I)cc(C)c1O
Found: 29 µM

Lookup: Look up TGI: O=C(NCCCCCCCCNC(=O)c1cnc2ccccc2n1)c1cnc2ccccc2n1
Found: > 100 µM

Lookup: Look up TGI: C=C(C)C(=O)CC[C@@H](C)[C@H]1[C@@H](OC2OC(CO)C(O)C(O)C2O)C[C@@]2(C)[C@@H]3C[C@H](O)C4C(C)(C)[C@@H](OC5OC(CO)C(O)C(O)C5O)CC[C@@]45C[C@@]35CC[C@]12C (stereo partly specified)
Found: > 100 µM

Lookup: Look up TGI: CCC(C)CN1C(=O)NC(C)(Cc2ccccc2)C1=O (stereo unspecified)
Found: > 100 µM
